test system: murine OC ID8 cells; format: cell-based
Readout: pIC50
Numbers only, as −log10 of the molar value.

Enquiry: Consider the compound N.N.[Cl][Pt][Cl] [cisplatin] and give its measured pIC50.
Return: 5.70

---

tested on: OvCa-26; experiment: cells; format: cell-based, human; conditions: Homo sapiens, read-out: calculated IC50
Readout: IC50 (µM)
One number for each entry, in µM.

Enquiry: Field request: IC50 | item: `Nc1ccn([C@@H]2O[C@H](CO)[C@@H](O)C2(F)F)c(=O)n1`
Return: 14.6
